Measurement description: pharmacokinetics, plasma concentrations by LC-MS/MS after IV and PO administration
Assay type: in vivo, Kunming mice
Test context: Kunming, mouse, oral gavage (PO), 10 mg/kg, read-out: Cmax peak plasma concentration
Property measured: Cmax (ng/mL)
Expressed in ng/mL, but write only the number.

Q. Fill in: Cmax of COc1ccc(C2=NN(C(=O)c3cccc(-c4nnn[nH]4)c3)C(c3cn(-c4ccccc4)nc3-c3ccc(C)cc3)C2)cc1 (stereo not shown) is ___
A. 165

====

Measurement description: pharmacokinetics, plasma concentrations by LC-MS/MS after IV and PO administration
Type: in vivo, Kunming mice
Test context: Kunming, mouse, oral gavage (PO), 10 mg/kg
Method: Plasma concentrations at various time points were determined using liquid chromatography tandem mass spectroscopy (LC-MS/MS). For intravenous (IV) administration, compound 14 was formulated as a solution at a final dose of 1 mg/kg. For oral gavage (PO) administration, compound 14 was formulated as a solution at a final dose of 10 mg/kg. Plasma concentrations at various time points were determined using LC-MS/MS. […]
Property measured: AUC(0-t) (ng·h/mL)
// note: answer is a bare numeric in ng·h/mL

Q. Which value of AUC(0-t) has been reported for COc1ccc(C2=NN(C(=O)c3cccc(-c4nnn[nH]4)c3)C(c3cn(-c4ccccc4)nc3-c3ccc(C)cc3)C2)cc1 (stereo not shown) [Compound 14] in the records?
A. 636

====

Measurement description: pharmacokinetics, plasma concentrations by LC-MS/MS after IV and PO administration
Format: in vivo, Kunming mice
Test context: Kunming, mouse, iv, 1 mg/kg, read-out: Cmax peak plasma concentration
Property measured: Cmax (ng/mL)
Reply with just the number (in ng/mL).

Q. Can you share its Cmax? I mean this compound: COc1ccc(C2=NN(C(=O)c3cccc(-c4nnn[nH]4)c3)C(c3cn(-c4ccccc4)nc3-c3ccc(C)cc3)C2)cc1 (stereo not shown)
A. 181

====

Measurement description: pharmacokinetics, plasma concentrations by LC-MS/MS after IV and PO administration
Assay type: in vivo, Kunming mice
Test context: Kunming, mouse, oral gavage (PO), 10 mg/kg, read-out: elimination half-life (converted)
Property measured: half-life (h)
Give your result in h as a bare value.

Q. For the compound shown here, COc1ccc(C2=NN(C(=O)c3cccc(-c4nnn[nH]4)c3)C(c3cn(-c4ccccc4)nc3-c3ccc(C)cc3)C2)cc1 (stereo not shown) [Compound 14] , give the reported half-life.
A. 1.99

====

Measurement description: pharmacokinetics, plasma concentrations by LC-MS/MS after IV and PO administration
Format: in vivo, Kunming mice
Test context: Kunming, mouse, iv, 1 mg/kg
Property measured: Tmax
# output: numeric value plus its unit

Q. Need Tmax, item COc1ccc(C2=NN(C(=O)c3cccc(-c4nnn[nH]4)c3)C(c3cn(-c4ccccc4)nc3-c3ccc(C)cc3)C2)cc1 (stereo not shown) [Compound 14]
A. 4.98 min

====

Target: CaVα1CaVβ3 interaction (Rattus norvegicus, UniProt P54287)
Sequence (P54287 whole entry): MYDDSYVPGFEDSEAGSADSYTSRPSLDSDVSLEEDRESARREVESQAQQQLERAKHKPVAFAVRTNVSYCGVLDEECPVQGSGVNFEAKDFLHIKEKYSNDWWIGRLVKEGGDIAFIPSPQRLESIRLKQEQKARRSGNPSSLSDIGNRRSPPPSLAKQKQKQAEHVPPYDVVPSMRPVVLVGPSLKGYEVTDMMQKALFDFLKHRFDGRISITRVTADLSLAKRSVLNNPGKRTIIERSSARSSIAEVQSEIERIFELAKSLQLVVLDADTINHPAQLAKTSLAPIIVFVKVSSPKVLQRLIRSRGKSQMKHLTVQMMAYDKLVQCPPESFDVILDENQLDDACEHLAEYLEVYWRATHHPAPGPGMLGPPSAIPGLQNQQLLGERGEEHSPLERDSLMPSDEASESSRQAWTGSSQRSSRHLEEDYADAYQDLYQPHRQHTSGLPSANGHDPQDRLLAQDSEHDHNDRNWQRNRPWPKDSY
Measurement description: fluorescence polarization assay, inhibition constant
Test context: fluorescence polarization assay
criterion met if Ki is below 4000 nM. criterion not met if not; exact matches included in criterion not met.

COc1ccc(C2=NN(C(=O)c3cccc(C(=O)O)c3)C(c3cn(-c4cccnc4)nc3-c3ccc(C)cc3)C2)cc1 (centres unmarked) | criterion not met

Q. Check if Ki falls below 4000 nM for COc1ccc(C2=NN(C(=O)c3cccc(-c4nnn[nH]4)c3)C(c3cn(-c4ccccc4)nc3-c3ccc(C)cc3)C2)cc1 (centres unmarked) .
A. criterion met

Q. Note, next up: COc1ccc(C2=NN(C(=O)CCC(=O)O)C(c3cn(-c4ccccc4)nc3-c3ccc(C)cc3)C2)cc1 (centres unmarked)
A. criterion not met

Q. Please answer likewise for Cc1ccc(-c2nn(-c3ccccc3)cc2C2CC(c3ccc(-c4ccccn4)cc3)=NN2C(=O)CCC(=O)O)cc1 (centres unmarked)
A. criterion met

Q. What about this compound? COc1ccc(C2=NN(C(=O)c3cccc(C(=O)O)c3)C(c3cn(-c4ccccc4)nc3-c3ccc(Cl)cc3)C2)cc1 (centres unmarked)
A. criterion met

Q. How about COc1ccc(C2=NN(C(=O)c3cccc(C(=O)O)c3)C(c3cn(-c4ccc(OC)cc4)nc3-c3ccc(C)cc3)C2)cc1 (centres unmarked) ?
A. criterion met

Q. Try this compound next: COc1ccc(C2=NN(C(=O)c3cccc(C(=O)O)c3)C(c3cn(-c4ccccc4)nc3-c3ccc(C)cc3)C2)cc1 (centres unmarked)
A. criterion met
